Source of measurements: patent US9120812B2

assayedTarget: mTOR (human recombinant aa mTOR 1360-2549) (Homo sapiens (Human), UniProt P42345)
Sequence (P42345 1360-2549): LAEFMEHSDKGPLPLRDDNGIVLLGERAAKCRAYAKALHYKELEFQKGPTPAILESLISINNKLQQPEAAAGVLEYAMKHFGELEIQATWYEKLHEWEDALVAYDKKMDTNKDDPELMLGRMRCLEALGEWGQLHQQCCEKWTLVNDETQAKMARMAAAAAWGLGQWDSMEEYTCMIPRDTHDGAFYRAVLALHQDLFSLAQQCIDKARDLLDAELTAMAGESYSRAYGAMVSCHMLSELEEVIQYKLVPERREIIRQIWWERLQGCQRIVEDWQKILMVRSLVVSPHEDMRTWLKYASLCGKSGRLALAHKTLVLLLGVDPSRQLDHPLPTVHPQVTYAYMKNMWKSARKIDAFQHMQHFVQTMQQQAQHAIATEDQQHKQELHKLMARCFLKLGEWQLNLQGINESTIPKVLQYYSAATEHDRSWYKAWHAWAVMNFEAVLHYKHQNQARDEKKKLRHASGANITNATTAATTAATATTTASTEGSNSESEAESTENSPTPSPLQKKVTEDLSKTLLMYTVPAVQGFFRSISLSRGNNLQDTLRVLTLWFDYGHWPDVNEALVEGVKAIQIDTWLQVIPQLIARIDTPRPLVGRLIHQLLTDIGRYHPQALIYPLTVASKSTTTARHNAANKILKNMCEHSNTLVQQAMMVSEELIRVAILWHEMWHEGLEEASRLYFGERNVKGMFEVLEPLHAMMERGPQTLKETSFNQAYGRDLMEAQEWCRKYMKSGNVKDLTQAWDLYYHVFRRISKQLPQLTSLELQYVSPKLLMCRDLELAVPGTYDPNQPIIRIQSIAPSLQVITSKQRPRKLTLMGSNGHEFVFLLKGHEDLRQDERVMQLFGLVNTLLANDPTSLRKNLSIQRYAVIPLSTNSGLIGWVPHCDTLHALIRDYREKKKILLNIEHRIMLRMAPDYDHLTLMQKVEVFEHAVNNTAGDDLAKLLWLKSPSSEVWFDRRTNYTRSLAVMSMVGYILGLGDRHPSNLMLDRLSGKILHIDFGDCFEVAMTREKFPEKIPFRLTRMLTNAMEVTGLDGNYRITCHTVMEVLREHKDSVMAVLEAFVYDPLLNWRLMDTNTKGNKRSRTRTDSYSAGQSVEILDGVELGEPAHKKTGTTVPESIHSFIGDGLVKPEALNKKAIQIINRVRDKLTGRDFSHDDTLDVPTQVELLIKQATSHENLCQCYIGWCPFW
testProtocol: mTOR enzymatic test by TR-FRET (phosphorylation of GFP-4EBP1)
A collection of compounds and their measured IC50

| compound | IC50, nM |
| --- | --- |
| CCNC(=O)Nc1ccc(-c2nc(N3CCOC[C@@H]3C)nc3c2C(=O)N(CC)CC(C)(C)O3)cc1 [Example 98] | 26 |
| CCNC(=O)Nc1ccc(-c2nc(N3CC4CCC(C3)O4)nc3c2C(=O)N(CCOC)CC(C)(C)O3)cc1 [Example 217] | 59 |
| CCN1CC(C)(C)Oc2nc(N3CC4CCC(C3)O4)nc(-c3ccc(NC(=O)Nc4ccc(N5CCCC5)nc4)c(F)c3)c2C1=O [Example 32] | 84 |
| CCN1CC(C)(C)Oc2nc(N3CC4CCC(C3)O4)nc(-c3ccc(NC(=O)Nc4cnc(OC)nc4)c(F)c3)c2C1=O [Example 136] | 34 |
| CCN1CC(C)(C)Oc2nc(N3CC4CCC(C3)O4)nc(-c3ccc(NC(=O)Nc4ccc(F)cc4F)cc3)c2C1=O [Example 19] | 32 |
| CCN1CC(C)(C)Oc2nc(N3C4CCC3COC4)nc(-c3ccc(NC(=O)Nc4ccccn4)cc3)c2C1=O [Example 63] | 31 |
| CCN1CC(C)(C)Oc2nc(N3CCOC[C@@H]3C)nc(-c3ccc(NC(=O)Nc4cccc(C)n4)cc3)c2C1=O [Example 36] | 55 |
| CCN1CC(C)(C)Oc2nc(N3CC4CCC(C3)O4)nc(-c3ccc(NC(=O)Nc4ccc(N5CCN(C(=O)OC)CC5)cc4)c(F)c3)c2C1=O [Example 236] | 112 |
| CCN1CC(C)(C)Oc2nc(N3CC4CCC(C3)O4)nc(-c3ccc(NC(=O)Nc4cccc(OC)c4)cc3)c2C1=O [Example 127] | 16 |
| CCNC(=O)Nc1ccc(-c2nc(N3CC4CCC(C3)O4)nc3c2C(=O)N(CC)CC(C)(C)CO3)cc1 [Example 10] | 344 |
| CCN1CC(C)(C)Oc2nc(N3CC4CCC(C3)O4)nc(-c3ccc(NC(=O)Nc4ccc(N5CCS(=O)(=O)CC5)cc4)c(F)c3)c2C1=O [Example 237] | 39 |
| CC1(C)CN(C2CCOCC2)C(=O)c2c(nc(N3CC4CCC(C3)O4)nc2-c2ccc(NC(=O)Nc3ccon3)c(F)c2)O1 [Example 153] | 31 |
| CCN1CC(C)(C)Oc2nc(N3CC4CCC(C3)O4)nc(-c3ccc(NC(=O)OC)cc3)c2C1=O [Example 105] | 180 |
| CCNC(=O)Nc1ccc(-c2nc(N3CC4CCC(C3)O4)nc3c2C(=O)N(CCC(=O)N(C)C)CC(C)(C)O3)cc1 [Example 8] | 44 |
| CCN1CC(C)(C)Oc2nc(N3CCOC[C@@H]3C)nc(-c3ccc(NC(=O)Nc4ccc(N5CCN(C)CC5)nc4)cc3)c2C1=O [Example 174] | 22 |
| CCN1CC(C)(C)Oc2nc(N3C4CCC3COC4)nc(-c3ccc(NC(=O)Nc4cccnc4)c(F)c3)c2C1=O [Example 50] | 39 |
| CCN1CC(C)(C)Oc2nc(N3CC4CCC(C3)O4)nc(-c3ccc(N)nc3)c2C1=O [Example 107] | 2650 |
| CCN1CC(C)(C)Oc2nc(N3CCOC[C@@H]3C)nc(-c3ccc(NC(=O)Nc4ccc(C)cn4)c(F)c3)c2C1=O [Example 164] | 85 |
| CCN1CC(C)(C)Oc2nc(N3CC4CCC(C3)O4)nc(-c3ccc(NC(=O)Nc4ccc(N(C)C)cn4)cc3)c2C1=O [Example 64] | 24 |
| C[C@@H]1COCCN1c1ccc(NC(=O)Nc2ccc(-c3nc(N4CC5CCC(C4)O5)nc4c3C(=O)N(C)CC(C)(C)O4)cc2F)cn1 [Example 87] | 57 |
| CC[C@H]1COCCN1c1ccc(NC(=O)Nc2ccc(-c3nc(N4CCOC[C@@H]4C)nc4c3C(=O)N(CC)CC(C)(C)O4)cc2F)cn1 [Example 248] | 68 |
| CN1CC(C)(C)Oc2nc(N3C4CCC3COC4)nc(-c3ccc(NC(=O)Nc4ccncc4)c(F)c3)c2C1=O [Example 82] | 21 |
| CCN1CC(C)(C)Oc2nc(N3CC4CCC(C3)O4)nc(-c3ccc(NC(=O)Nc4ccc(C(=O)N(C)CCN(C)C)cc4)cc3)c2C1=O [Example 176] | 69 |
